- Tested on: LS-123 (Colorectal Carcinoma);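 note: after 72 h of two-drug dosing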
- assay.summary: Bliss excess, mean over the matrix (fraction); higher = more synergy
Give measured Bliss excess for each item. Keep answers brief.
// keep it numeric: no unit symbol after the value

Query string: May I ask what Bliss excess has been recorded for O=C(c1cc(Cc2n[nH]c(=O)c3ccccc23)ccc1F)N1CCN(C(=O)C2CC2)CC1 [Olaparib] + CC1(C)CCC(CN2CCN(c3ccc(C(=O)NS(=O)(=O)c4ccc(NCC5CCOCC5)c([N+](=O)[O-])c4)c(Oc4cnc5[nH]ccc5c4)c3)CC2)=C(c2ccc(Cl)cc2)C1 [Venetoclax] (first compound max 10 µM, 7x7, partner max 1 µM) ?
Result string: -0.0413

Query string: May I ask what Bliss excess has been recorded for C[C@@H](Oc1cc(-c2cnn(C3CCNCC3)c2)cnc1N)c1c(Cl)ccc(F)c1Cl [Crizotinib] + Cn1cnc2c(F)c(Nc3ccc(Br)cc3Cl)c(C(=O)NOCCO)cc21 [Selumetinib] (first compound max 10 µM, 7x7, partner max 10 µM) ?
Result string: -0.0378

---

Give measured combination Emax for each item. Keep answers brief.
- Test system: OVCAR-5 (Ovarian Carcinoma)
- assay.summary: combination Emax (second highest fraction inhibited in the dose matrix, 72 h); higher = more inhibition; extreme values may be limits of the assay

Query string: May I ask what combination Emax has been recorded for CS(=O)(=O)CCNCc1ccc(-c2ccc3ncnc(Nc4ccc(OCc5cccc(F)c5)c(Cl)c4)c3c2)o1 [Lapatinib] + NC1(c2ccc(-c3nc4ccn5c(=O)[nH]nc5c4cc3-c3ccccc3)cc2)CCC1 [MK-2206] (first compound max 10 µM, 7x7, partner max 10 µM) ?
Result string: 0.787

Query string: May I ask what combination Emax has been recorded for CCN(CCO)CCCOc1ccc2c(Nc3cc(CC(=O)Nc4cccc(F)c4)[nH]n3)ncnc2c1 [AZD2811] + C=CCn1c(=O)c2cnc(Nc3ccc(N4CCN(C)CC4)cc3)nc2n1-c1cccc(C(C)(C)O)n1 [AZD1775] (first compound max 1 µM, partner max 1 µM) ?
Result string: 0.273

Query string: May I ask what combination Emax has been recorded for Cc1c2c(nn1C)CSCc1cc(n(C)n1)CSc1cc(c3ccccc3c1)OCCCc1c(C(=O)O)n(C)c3c-2c(Cl)ccc13 [AZD5991] + Cn1cnc2c(F)c(Nc3ccc(Br)cc3Cl)c(C(=O)NOCCO)cc21 [Selumetinib] (first compound max 1 µM, 7x7, partner max 3 µM) ?
Result string: 0.543

Query string: May I ask what combination Emax has been recorded for COc1cccc(OCCCN)c1-c1cc(Nc2cnc(C#N)cn2)n[nH]1 [Prexasertib] + Cc1cc2ncnn2cc1Nc1ncc2c(n1)n(C1CCOCC1)c(=O)n2C [AZD7648] (first compound max 1 µM, 7x7, partner max 10 µM) ?
Result string: 0.829

---

- Test system: NCI-H2052 (Mesothelioma)
- assay.summary: combination Emax (second highest fraction inhibited in the dose matrix, 72 h); higher = more inhibition; extreme values may be limits of the assay
Give measured combination Emax for each item. Keep answers brief.
// keep it numeric: no unit symbol after the value

Query string: May I ask what combination Emax has been recorded for Cc1c2c(nn1C)CSCc1cc(n(C)n1)CSc1cc(c3ccccc3c1)OCCCc1c(C(=O)O)n(C)c3c-2c(Cl)ccc13 [AZD5991] + CC1(C)CCC(CN2CCN(c3ccc(C(=O)NS(=O)(=O)c4ccc(NCC5CCOCC5)c([N+](=O)[O-])c4)c(Oc4cnc5[nH]ccc5c4)c3)CC2)=C(c2ccc(Cl)cc2)C1 [Venetoclax] (first compound max 1 µM, 7x7, partner max 1 µM) ?
Result string: 0.229

Query string: May I ask what combination Emax has been recorded for CN(CCO)CC[C@H](CSc1ccccc1)Nc1ccc(S(=O)(=O)NC(=O)c2ccc(N3CCC([C@@H](O)c4ccccc4-c4ccc(Cl)cc4)CC3)cc2)cc1S(=O)(=O)C(F)(F)F [AZD4320] + C[C@@H]1COCCN1C2=NC(=NC(=C2)C3(CC3)[S@](=N)(=O)C)C4=C5C=CNC5=NC=C4 [AZD6738] (first compound max 1 µM, 7x7, partner max 10 µM) ?
Result string: 0.439
